The measurements presented in this section are drawn from paper PMC10334013.

TARGET OR SYSTEM: human AHR (Homo sapiens)
Sequence (P35869 11-848): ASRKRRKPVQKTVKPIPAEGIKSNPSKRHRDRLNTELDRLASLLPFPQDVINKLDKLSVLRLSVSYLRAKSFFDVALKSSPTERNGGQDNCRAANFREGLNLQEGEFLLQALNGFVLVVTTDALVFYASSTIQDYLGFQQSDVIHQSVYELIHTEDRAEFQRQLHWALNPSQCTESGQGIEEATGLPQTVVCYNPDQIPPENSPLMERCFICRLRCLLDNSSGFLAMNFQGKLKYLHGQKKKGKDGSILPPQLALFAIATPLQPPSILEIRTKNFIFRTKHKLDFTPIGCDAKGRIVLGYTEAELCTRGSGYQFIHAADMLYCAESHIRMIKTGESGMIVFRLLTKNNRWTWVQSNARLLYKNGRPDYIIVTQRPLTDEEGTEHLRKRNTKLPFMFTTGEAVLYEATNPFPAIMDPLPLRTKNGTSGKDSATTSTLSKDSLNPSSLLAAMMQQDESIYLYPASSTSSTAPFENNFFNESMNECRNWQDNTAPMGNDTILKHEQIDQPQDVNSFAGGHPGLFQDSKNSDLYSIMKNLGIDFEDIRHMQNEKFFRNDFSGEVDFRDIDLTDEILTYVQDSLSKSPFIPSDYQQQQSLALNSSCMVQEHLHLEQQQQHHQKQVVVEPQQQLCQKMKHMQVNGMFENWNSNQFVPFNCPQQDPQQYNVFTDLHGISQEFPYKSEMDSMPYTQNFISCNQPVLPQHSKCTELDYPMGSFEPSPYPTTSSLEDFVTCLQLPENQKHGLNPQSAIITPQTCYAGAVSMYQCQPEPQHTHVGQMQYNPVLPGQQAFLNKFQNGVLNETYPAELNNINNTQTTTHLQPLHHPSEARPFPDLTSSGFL
PROCEDURE SUMMARY: Human AHR-dependent luciferase reporter assay
Assay type: cell-based
TEST CONDITIONS: HepG2 40/6 luciferase reporter, 4 hours, normalized to 10 nM TCDD and VEH
TEST READOUT: EC25 (µM)

COMPOUND: O=C(O)CCc1c[nH]c2ccccc12
TARGET OR SYSTEM: human AHR (Homo sapiens)
EC25 / µM: 19.2

[1] O=C(O)c1cc(=O)c2ccccc2[nH]1
[2] O=C(O)C(O)Cc1c[nH]c2ccccc12 (stereo not shown)
[3] Nc1ccccc1C(=O)CC(N)C(=O)O (stereo not shown)
Sequence the entries by EC25, beginning with the highest number. The response must list the labels following the requested ordering.
2, 3, 1
(2: 25.9 µM, 3: 1.76 µM, 1: 0.0408 µM)
